cond: in ethyl acetate, 283.15 K
measured.metric: solubility (mole fraction)

Return solubility (mole fraction) for the following molecule: O=c1[nH]c(=O)n(C2CCCO2)cc1F (stereo unspecified)
0.00837

====

cond: in acetone, 303.15 K
measured.metric: solubility (mole fraction)
No unit in the answer, please; the number alone is enough.

Given O=c1[nH]c(=O)n(C2CCCO2)cc1F (stereo unspecified) , respond with its solubility (mole fraction).
0.0277

====

cond: in isopropanol, 303.15 K
measured.metric: solubility (mole fraction)
Could you keep your reply to the number by itself?

For the molecule O=c1[nH]c(=O)n(C2CCCO2)cc1F (stereo unspecified) , give its reported solubility (mole fraction).
0.00358

====

cond: in acetone, 298.15 K
measured.metric: solubility (mole fraction)

For the molecule O=c1[nH]c(=O)n(C2CCCO2)cc1F (stereo unspecified) , report solubility (mole fraction).
0.0233

====

cond: in n-propanol, 288.15 K
measured.metric: solubility (mole fraction)
Enter the number alone.

Return solubility (mole fraction) for the following molecule: O=c1[nH]c(=O)n(C2CCCO2)cc1F (stereo unspecified)
0.00223

====

cond: in ethyl acetate, 308.15 K
measured.metric: solubility (mole fraction)
Format: numeric value only, no unit, no commentary.

Consider the molecule O=c1[nH]c(=O)n(C2CCCO2)cc1F (stereo unspecified) and give its recorded solubility (mole fraction).
0.0153

====

cond: in ethanol, 293.15 K
measured.metric: solubility (mole fraction)
The reply should be a number, written without any unit.

Given O=c1[nH]c(=O)n(C2CCCO2)cc1F (stereo unspecified) , respond with its solubility (mole fraction).
0.00318

====

cond: in n-propanol, 303.15 K
measured.metric: solubility (mole fraction)
When you answer, write just the number.

Tell me its solubility (mole fraction) given O=c1[nH]c(=O)n(C2CCCO2)cc1F (stereo unspecified) as the entry.
0.0042

====

cond: in n-propanol, 308.15 K
measured.metric: solubility (mole fraction)
Write the number on its own, no unit after it.

Report solubility (mole fraction) for O=c1[nH]c(=O)n(C2CCCO2)cc1F (stereo unspecified)
0.00516

====

cond: in methanol, 303.15 K
measured.metric: solubility (mole fraction)
Give the figure only, with no unit attached.

Note solubility (mole fraction) for the compound shown: O=c1[nH]c(=O)n(C2CCCO2)cc1F (stereo unspecified)
0.00925

====

cond: in ethyl acetate, 288.15 K
measured.metric: solubility (mole fraction)
Enter a number only.

Output solubility (mole fraction) of O=c1[nH]c(=O)n(C2CCCO2)cc1F (stereo unspecified)
0.00957

====

cond: in methanol, 313.15 K
measured.metric: solubility (mole fraction)

Please indicate solubility (mole fraction) recorded for O=c1[nH]c(=O)n(C2CCCO2)cc1F (stereo unspecified)
0.0126

====

cond: in acetone, 283.15 K
measured.metric: solubility (mole fraction)
Output: the number by itself.

Answer with reported solubility (mole fraction) of O=c1[nH]c(=O)n(C2CCCO2)cc1F (stereo unspecified)
0.014

====

cond: in acetone, 288.15 K
measured.metric: solubility (mole fraction)
Lab note: record just the number, no unit beside it.

Provide solubility (mole fraction) value for the following compound: O=c1[nH]c(=O)n(C2CCCO2)cc1F (stereo unspecified)
0.0168

====

cond: in ethanol, 273.15 K
measured.metric: solubility (mole fraction)
Give only the figure.

Give the reported value of solubility (mole fraction) for this record: O=c1[nH]c(=O)n(C2CCCO2)cc1F (stereo unspecified)
0.00118

====

cond: in isopropanol, 298.15 K
measured.metric: solubility (mole fraction)

Note solubility (mole fraction) for the compound shown: O=c1[nH]c(=O)n(C2CCCO2)cc1F (stereo unspecified)
0.00286

====

cond: in n-propanol, 273.15 K
measured.metric: solubility (mole fraction)
Could you respond with only the numeric value?

For the compound O=c1[nH]c(=O)n(C2CCCO2)cc1F (stereo unspecified) , give its reported solubility (mole fraction).
0.00112

====

cond: in methanol, 283.15 K
measured.metric: solubility (mole fraction)

Using the record for O=c1[nH]c(=O)n(C2CCCO2)cc1F (stereo unspecified) , state its measured solubility (mole fraction).
0.00495

====

cond: in methanol, 298.15 K
measured.metric: solubility (mole fraction)
No unit in the answer, please; the number alone is enough.

Please give the documented solubility (mole fraction) of O=c1[nH]c(=O)n(C2CCCO2)cc1F (stereo unspecified)
0.00802

====

cond: in ethanol, 303.15 K
measured.metric: solubility (mole fraction)
I only need the number, thanks.

Tell me measured solubility (mole fraction) for O=c1[nH]c(=O)n(C2CCCO2)cc1F (stereo unspecified) please.
0.00506

====

cond: in isopropanol, 288.15 K
measured.metric: solubility (mole fraction)

Query solubility (mole fraction) for O=c1[nH]c(=O)n(C2CCCO2)cc1F (stereo unspecified)
0.00179

====

cond: in ethyl acetate, 273.15 K
measured.metric: solubility (mole fraction)
Reply briefly: the number, and no unit.

Provide only the value of recorded solubility (mole fraction) for O=c1[nH]c(=O)n(C2CCCO2)cc1F (stereo unspecified)
0.00607

====

cond: in acetone, 293.15 K
measured.metric: solubility (mole fraction)
Response field accepts a number only; no unit should be typed.

Consider the molecule O=c1[nH]c(=O)n(C2CCCO2)cc1F (stereo unspecified) and give its recorded solubility (mole fraction).
0.0196

====

cond: in isopropanol, 313.15 K
measured.metric: solubility (mole fraction)
The reply should be a number, written without any unit.

Answer with the recorded solubility (mole fraction) for the molecule listed here: O=c1[nH]c(=O)n(C2CCCO2)cc1F (stereo unspecified)
0.00547

====

cond: in acetone, 308.15 K
measured.metric: solubility (mole fraction)
// response body must contain only the number

Assign solubility (mole fraction) to the following record: O=c1[nH]c(=O)n(C2CCCO2)cc1F (stereo unspecified)
0.0326

====

cond: in ethyl acetate, 293.15 K
measured.metric: solubility (mole fraction)
# respond with the number and nothing more

Supply measured solubility (mole fraction) of O=c1[nH]c(=O)n(C2CCCO2)cc1F (stereo unspecified) in your reply.
0.0109

====

cond: in acetone, 313.15 K
measured.metric: solubility (mole fraction)
Note: the reply should be a number with no unit written.

State its solubility (mole fraction) for this compound: O=c1[nH]c(=O)n(C2CCCO2)cc1F (stereo unspecified)
0.0388

====

cond: in ethanol, 288.15 K
measured.metric: solubility (mole fraction)
No unit in the answer, only the number.

Give a short answer stating reported solubility (mole fraction) for O=c1[nH]c(=O)n(C2CCCO2)cc1F (stereo unspecified) .
0.00253

====

cond: in ethanol, 278.15 K
measured.metric: solubility (mole fraction)
# respond with the number and nothing more

For the molecule O=c1[nH]c(=O)n(C2CCCO2)cc1F (stereo unspecified) , give its measured solubility (mole fraction) value.
0.00152
